Where these numbers come from: patent US20180177842A1

RAMPO Score listing for selected binders.
- experimental.target: T1, His-tagged P3028 (human, also: His tag, length and end not given here)
- T1 construct: in solution at 0.5 ug/mL, detected with mouse anti-His antibody and rabbit anti-mouse peroxidase (rampo); also called PGE73; His-tag-P3028; not shown: His tag
- T1 peptide: VFDEFKPLVEEPQNLIK
- test.details: PEPSCAN ELISA, peptide on chip;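 further: binding detected by peroxidase ELISA with ABTS, OD405 colour imaged by CCD camera before and after staining, raw OD405 reported as rampo units, air-bubble wells scored 0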
Ends that are not written are not given here.
Value expressed in rampo units; do not type the unit.

The examples below pair each entry with its known result.
[
  {
    "binder": "KKLDTFFVKYSLFTER [SEQ ID NO 344]",
    "unit.spec": "rampo units",
    "RAMPO Score": 382
  },
  {
    "binder": "KKLDTFFLKLSLFTER [SEQ ID NO 328]",
    "unit.spec": "rampo units",
    "RAMPO Score": 411
  },
  {
    "binder": "KKLDTFFVKLSLFTEN [SEQ ID NO 390]",
    "unit.spec": "rampo units",
    "RAMPO Score": 311
  }
]

Moving on to another binder below.
Q: So what's the measured RAMPO Score for this one? PKLDTFFVKLSLFTER [SEQ ID NO 277]
A: 387
